Source: patent US5719129A

target: A.R. - Rat lens (Rattus norvegicus, UniProt P07943); construct: crude enzyme extract isolated from lenses freshly obtained from bovines and rats; experiment: Inhibition of aldose reductase, rat lens
pIC50: −log10 of the molar value.
Attribute: pIC50

{"columns": ["molecule", "pIC50"],
 "data": [
  ["C[C@@H]1OC(O[C@@H]2[C@@H](O)[C@H](OCCc3ccc(O)c(O)c3)O[C@H](CO[C@@H]3OC[C@@H](O)[C@H](O)[C@H]3O)[C@H]2OC(=O)/C=C/c2ccc(O)c(O)c2)[C@H](O)[C@H](O)[C@H]1O (stereo partly drawn) [Arenarioside]", 5.38],
  ["CC1OC(OC2C(OC(=O)C=Cc3ccc(O)c(O)c3)C(CO)OC3OCC(c4ccc(O)c(O)c4)OC32)C(O)C(O)C1O (stereo not drawn) [Oraposide]", 6.66],
  ["C[C@@H]1O[C@@H](O[C@@H]2[C@@H](O)[C@H](OCCc3ccc(O)c(O)c3)O[C@H](CO)[C@H]2OC(=O)/C=C/c2ccc(O)c(O)c2)[C@H](O)[C@H](O)[C@H]1O [Verbascoside]", 5.75]
]}
